Assay Name: Aqueous solubility of compound
Assay type: physicochemical
Endpoint Label: solubility

// query What does the data say about its solubility? Entry: "C=C(C)[C@@H]1CC[C@]2(C(=O)O)CC[C@]3(C)[C@H](CC[C@@H]4[C@@]5(C)CC[C@H](OC(=O)CC(C)(C)C(=O)O)C(C)(C)[C@@H]5CC[C@]43C)[C@@H]12"
// result < 1 µg/mL

---

For each of the compounds below, state its IC50.
Assay Name: Inhibition of Zaire Ebola virus pseudoparticle GP HR2 domain-mediated virus-host fusion in human 293T cells incubated for 72 hrs by Bright-Glo reagent based assay
Format: cell-based, Zaire ebolavirus
Protocol Conditions: hek293t
Please don't drop the unit; write it after the number.

// query What does the data say about its IC50? Entry: "CC(=O)OC[C@H]1O[C@@H](NC(=O)[C@]23CCC(C)(C)C[C@H]2C2=CC[C@@H]4[C@@]5(C)CCC(=O)C(C)(C)[C@@H]5CC[C@@]4(C)[C@]2(C)CC3)[C@H](OC(C)=O)[C@@H](OC(C)=O)[C@H]1OC(C)=O"
// result 467 nM

// query Let us now turn to "CC(=O)OC[C@H]1O[C@@H](NC(=O)[C@]23CCC(C)(C)C[C@H]2C2=CC[C@@H]4[C@@]5(C)CCC(=O)C(C)(C)[C@@H]5CC[C@@]4(C)[C@]2(C)CC3=O)[C@H](OC(C)=O)[C@@H](OC(C)=O)[C@H]1OC(C)=O"
// result 59.2 nM

// query Let us now turn to CC1(C)CCC2C(=O)C[C@]3(C)C(=CC[C@@H]4[C@@]5(C)CCC(=O)C(C)(C)[C@@H]5CC[C@]43C)[C@@H]2C1 (stereo partly drawn)
// result 1350 nM

---

For each of the molecules below, state its inhibition.
Test system: HEK293T
Assay Name: Inhibition of Ebola virus pseudoparticle GP HR2 domain-mediated viral entry into human 293T cells at 1 uM incubated for 72 hrs by Bright-Glo reagent based assay relative to control
Format: cell-based
Protocol Conditions: Ebolavirus
Return type: number; implicit unit %.

// query What does the data say about its inhibition? Entry: CC1(C)CCC2C(=O)C[C@]3(C)C(=CC[C@@H]4[C@@]5(C)CCC(=O)C(C)(C)[C@@H]5CC[C@]43C)[C@@H]2C1 (stereo not given in full)
// result 52

// query Let us now turn to "CC1(C)CC[C@]2(C(=O)N[C@@H]3O[C@H](CO)[C@@H](O)[C@H](O)[C@@H]3O)[C@H](O)C[C@]3(C)C(=CC[C@@H]4[C@@]5(C)CC[C@H](O)C(C)(C)[C@@H]5CC[C@]43C)[C@@H]2C1"
// result 3

// query Let us now turn to "CC1(C)CC[C@]2(C(=O)O)[C@H](O)C[C@]3(C)C(=CC[C@@H]4[C@@]5(C)CC[C@H](O)C(C)(C)[C@@H]5CC[C@]43C)[C@@H]2C1"
// result 2

// query Let us now turn to "CC1(C)CC[C@]2(C(=O)O)CC[C@]3(C)C(=CC[C@@H]4[C@@]5(C)CCC(=O)C(C)(C)[C@@H]5CC[C@]43C)[C@@H]2C1"
// result 25

// query Let us now turn to "CC1(C)CC[C@]2(C(=O)N[C@@H]3O[C@H](CO)[C@H](O)[C@H](O)[C@H]3O)CC[C@]3(C)C(=CC[C@@H]4[C@@]5(C)CCC(=O)C(C)(C)[C@@H]5CC[C@]43C)[C@@H]2C1"
// result 7

// query Let us now turn to "CC(=O)OC[C@H]1O[C@@H](NC(=O)[C@]23CCC(C)(C)C[C@H]2C2=CC[C@@H]4[C@@]5(C)CC[C@H](O)C(C)(C)[C@@H]5CC[C@@]4(C)[C@]2(C)CC3)[C@H](OC(C)=O)[C@@H](OC(C)=O)[C@H]1OC(C)=O"
// result 32

// query Let us now turn to "CC(=O)OC[C@H]1O[C@@H](NC(=O)[C@]23CCC(C)(C)C[C@H]2C2=CC[C@@H]4[C@@]5(C)CC[C@H](O)C(C)(C)[C@@H]5CC[C@@]4(C)[C@]2(C)C[C@H]3O)[C@H](OC(C)=O)[C@@H](OC(C)=O)[C@H]1OC(C)=O"
// result 22

// query Let us now turn to "CC(=O)OC[C@H]1O[C@@H](NC(=O)[C@]23CCC(C)(C)C[C@H]2C2=CC[C@@H]4[C@@]5(C)CCC(=O)C(C)(C)[C@@H]5CC[C@@]4(C)[C@]2(C)CC3)[C@H](OC(C)=O)[C@@H](OC(C)=O)[C@H]1OC(C)=O"
// result 93

// query Let us now turn to "CC(=O)OC[C@H]1O[C@@H](NC(=O)[C@]23CCC(C)(C)C[C@H]2C2=CC[C@@H]4[C@@]5(C)CC[C@H](O)C(C)(C)[C@@H]5CC[C@@]4(C)[C@]2(C)CC3)[C@@H](OC(C)=O)[C@@H](OC(C)=O)[C@@H]1OC(C)=O"
// result -4

// query Let us now turn to "CC1(C)CC[C@]2(C(=O)N[C@@H]3O[C@H](CO)[C@H](O)[C@H](O)[C@H]3O)C(=O)C[C@]3(C)C(=CC[C@@H]4[C@@]5(C)CCC(=O)C(C)(C)[C@@H]5CC[C@]43C)[C@@H]2C1"
// result 6

---

Test system: HEK293T
Assay Name: Inhibition of Ebola virus pseudoparticle GP HR2 domain-mediated viral entry into human 293T cells at 1 uM incubated for 72 hrs by Bright-Glo reagent based assay relative to control
Type: cell-based
Protocol Conditions: Ebolavirus
Endpoint Label: inhibition (%)
Return type: number; implicit unit %.

// query What does the data say about its inhibition? Entry: "CC1(C)CC[C@]2(C(=O)N[C@@H]3O[C@H](CO)[C@H](O)[C@H](O)[C@H]3O)CC[C@]3(C)C(=CC[C@@H]4[C@@]5(C)CC[C@H](O)C(C)(C)[C@@H]5CC[C@]43C)[C@@H]2C1"
// result 16

// query Let us now turn to "CC1(C)CC[C@]2(C(=O)N[C@@H]3O[C@H](CO)[C@@H](O)[C@H](O)[C@@H]3O)CC[C@]3(C)C(=CC[C@@H]4[C@@]5(C)CC[C@H](O)C(C)(C)[C@@H]5CC[C@]43C)[C@@H]2C1"
// result -5

// query Let us now turn to "CC1(C)CC[C@]2(C(=O)O)CC[C@]3(C)C(=CC[C@@H]4[C@@]5(C)CC[C@H](O)C(C)(C)[C@@H]5CC[C@]43C)[C@@H]2C1"
// result 1

// query Let us now turn to "CC1(C)CC[C@]2(C(=O)N[C@@H]3O[C@H](CO)[C@H](O)[C@H](O)[C@H]3O)[C@H](O)C[C@]3(C)C(=CC[C@@H]4[C@@]5(C)CC[C@H](O)C(C)(C)[C@@H]5CC[C@]43C)[C@@H]2C1"
// result 16

// query Let us now turn to "CC(=O)OC[C@H]1O[C@@H](NC(=O)[C@]23CCC(C)(C)C[C@H]2C2=CC[C@@H]4[C@@]5(C)CC[C@H](O)C(C)(C)[C@@H]5CC[C@@]4(C)[C@]2(C)C[C@H]3O)[C@@H](OC(C)=O)[C@@H](OC(C)=O)[C@@H]1OC(C)=O"
// result 17

// query Let us now turn to "CC(=O)OC[C@H]1O[C@@H](NC(=O)[C@]23CCC(C)(C)C[C@H]2C2=CC[C@@H]4[C@@]5(C)CCC(=O)C(C)(C)[C@@H]5CC[C@@]4(C)[C@]2(C)CC3=O)[C@H](OC(C)=O)[C@@H](OC(C)=O)[C@H]1OC(C)=O"
// result 99
